Target: hGIPR (Homo sapiens, UniProt P48546)
Construct: expressed in transfected cells; host or cells: CHO cells carrying a CRE-luciferase reporter gene
Sequence (P48546 22-466): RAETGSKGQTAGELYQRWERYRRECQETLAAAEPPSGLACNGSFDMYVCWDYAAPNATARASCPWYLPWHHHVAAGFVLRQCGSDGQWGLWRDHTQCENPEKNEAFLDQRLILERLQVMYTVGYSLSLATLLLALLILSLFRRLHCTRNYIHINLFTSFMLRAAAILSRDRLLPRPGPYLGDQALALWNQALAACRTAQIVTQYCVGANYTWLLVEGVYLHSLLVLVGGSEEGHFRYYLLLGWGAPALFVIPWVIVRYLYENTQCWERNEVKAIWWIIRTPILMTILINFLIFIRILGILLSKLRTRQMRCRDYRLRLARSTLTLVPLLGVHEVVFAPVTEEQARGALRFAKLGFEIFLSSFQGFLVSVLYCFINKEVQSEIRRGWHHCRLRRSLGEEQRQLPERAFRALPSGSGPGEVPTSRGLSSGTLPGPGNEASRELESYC
Test: hGIPR CreLuc reporter gene assay in 0.5% and 100% plasma
Assay type: cell-based
Conditions: CreLuc reporter gene assay, 0.5% human plasma; read-out: hGIPR 0.5% hP
Protocol: Example 1: hGLPR/hGIPR/hNPY2R CreLuc Assay in 0.5% and 100% Plasma CHO and HEK-293 recombinant cell lines express a luciferase reporter gene under control of the cAMP responsive element (CRE). […] Following incubation, assay plates are equilibrated to room temperature, followed by addition of 25 μl of Bright-GIo™ Luciferase reagent, incubation at room temperature for 10 minutes and analysis of luminescence (Envision Reader). […]
Starred links: 1 amine or outer side, 2 acyl side, 3 side chain; linkers in the order of their positions; H or OH if unused. Non-standard residues stand in square brackets, D forms with d. Groups on a side chain read outwards from the residue. *: point of attachment. C20 diacid = O=C(O)CCCCCCCCCCCCCCCCCCC(=O)*; C18 diacid = O=C(O)CCCCCCCCCCCCCCCCC(=O)*; γGlu = O=C(O)[C@H](CCC(=O)[*:2])N[*:1]; εLys = N[C@@H](CCCCN[*:1])C(=O)[*:2]; AEEA = NCCOCCOCC(=O)O; Aib = CC(C)(N)C(=O)O
EC50 less than 0.3 nM is 1; EC50 greater than or equal to 0.3 nM is -1.

QUERY: Is EC50 of H-Y[Aib]EGTFTSDYSI[Aib]LEKQAE[Aib]AFVEWLIK([γGlu-γGlu-γGlu-γGlu-C18 diacid])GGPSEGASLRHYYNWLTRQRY-NH2 [Compound 262] strictly below 0.3 nM?
RESULT: 1

QUERY: Is EC50 of H-Y[Aib]EGTFTSDYSI[Aib]LEKQAQ[Aib]AFVEWLIK([εLys-γGlu-γGlu-γGlu-γGlu-γGlu-γGlu-C20 diacid])GGPRSGASLRHYYNWLTRQRY-NH2 [Compound 168] strictly below 0.3 nM?
RESULT: 1

QUERY: Is EC50 of H-Y[Aib]EGTFTSDYSI[Aib]LEKQAQ[Aib]EFVEWLIK([AEEA-γGlu-γGlu-γGlu-C18 diacid])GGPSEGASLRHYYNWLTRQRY-NH2 [Compound 274] strictly below 0.3 nM?
RESULT: 1

QUERY: Is EC50 of H-Y[Aib]EGTFTSDYSI[Aib]LEKQAQ[Aib]AFVQWLIK([AEEA-AEEA-γGlu-γGlu-γGlu-γGlu-C20 diacid])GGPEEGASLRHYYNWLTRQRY-NH2 [Compound 193] strictly below 0.3 nM?
RESULT: -1
